- assay_info: Lipophilicity determination by RP-HPLC (capacity factor k / logk)
- Assay type: physicochemical
- condition: series A; isocratic MeOH 72%/H2O 28%, C18 column, 40 °C
- Protocol: A HPLC separation module Waters Alliance 2695 XE equipped with a Waters Dual Absorbance Detector 2486 (Waters Corp., Milford, MA, USA) was used. A chromatographic column Symmetry® C18 5 µm, 4.6 × 250 mm, Part No. W21751W016 (Waters Corp.) was used. The HPLC separation process was monitored by Empower® 3 Chromatography Manager Software (Waters Corp.). Isocratic elution by a mixture of MeOH p.a. […] Retention times (tR) were measured in minutes. […]
measured_endpoint: logk

Consider the worked cases shown below.
Query string: # logk lookup, item CCCOc1cccc(NC(=O)c2cc3ccccc3cc2O)c1 [9a]
Result string: 0.7672

Query string: # logk lookup, item CC(C)Oc1cccc(NC(=O)c2cc3ccccc3cc2O)c1 [15a]
Result string: 0.6723

Query string: # logk lookup, item CCOc1ccccc1NC(=O)c1cc2ccccc2cc1O [5a]
Result string: 0.5570

Query string: # logk lookup, item COc1cccc(NC(=O)c2cc3ccccc3cc2O)c1 [3a]
Result string: 0.4055

Query string: # logk lookup, item CCCCOc1ccccc1NC(=O)c1cc2ccccc2cc1O [11a]
Result string: 0.9136

Query string: # logk lookup, item CCCCOc1ccc(NC(=O)c2cc3ccccc3cc2O)cc1 [13a]
Result string: 0.8961

Query string: # logk lookup, item CCCOc1ccccc1NC(=O)c1cc2ccccc2cc1O [8a]
Result string: 0.7221

Query string: # logk lookup, item CC(C)Oc1ccccc1NC(=O)c1cc2ccccc2cc1O [14a]
Result string: 0.6360

Query string: # logk lookup, item CCOc1ccc(NC(=O)c2cc3ccccc3cc2O)cc1 [7a]
Result string: 0.4916

1: CCCOc1ccc(NC(=O)c2cc3ccccc3cc2O)cc1 [10a]
2: COc1ccccc1NC(=O)c1cc2ccccc2cc1O [2a]
Query string: Compare 1 and 2 and name the one whose reported logk is smaller. Bench note: the answer is the label of the chosen record.
Result string: 2
(2: 0.3982, 1: 0.6963)

----------
- assay_info: Lipophilicity determination by RP-HPLC (capacity factor k / logk)
- Assay type: physicochemical
- condition: series C; π = logkS − logkU, unsubstituted 1c as reference
- Description: A HPLC separation module Waters Alliance 2695 XE equipped with a Waters Dual Absorbance Detector 2486 (Waters Corp., Milford, MA, USA) was used. A chromatographic column Symmetry® C18 5 µm, 4.6 × 250 mm, Part No. W21751W016 (Waters Corp.) was used. The HPLC separation process was monitored by Empower® 3 Chromatography Manager Software (Waters Corp.). Isocratic elution by a mixture of MeOH p.a. […] Retention times (tR) were measured in minutes. […]
measured_endpoint: πC (distributive parameter π calculated from logk)

Query string: # πC (distributive parameter π calculated from logk) lookup, item CCCOc1ccc(NC(=O)c2c(O)ccc3ccccc23)cc1 [10c]
Result string: 0.72

1: O=C(Nc1ccccc1)c1c(O)ccc2ccccc12
2: CC(C)Oc1cccc(NC(=O)c2c(O)ccc3ccccc23)c1 [15c]
Query string: Compare 1 and 2 and name the one whose reported πC (distributive parameter π calculated from logk) is smaller. Bench note: the answer is the label of the chosen record.
Result string: 1
(1: 0, 2: 0.57)
